# assayedSystem: T1, canine beta-NGF (cNGF) (canine, UniProt Q29074 110-229 (pig entry))
# T1 chain: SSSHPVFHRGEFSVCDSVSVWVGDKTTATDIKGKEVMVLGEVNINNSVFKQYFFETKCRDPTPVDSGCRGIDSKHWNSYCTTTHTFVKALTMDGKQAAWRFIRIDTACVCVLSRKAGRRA
# measurementDescription: cell-based or functional assay
metric: Average Max % Inhib. (pERK 1/2, CHO cells expressing human TrkA)

binder: 15H02-02E01 (antibody, IgG1, V domains shown) VH: EVQLEQSGPGLVAPSQSLSITCTVSGFSLTGYGVNWVRQPPGKGLEWLGMIWGDGSTDYNSALKSRLSISKDNSKSQVFLKMNSLQTDDTARYYCARDGYYYGTTWYFDVWGAGTTVTVSS VL: DIVLTQSTSSLSASLGDRVTISCRASQDISNYLNWYQQKPDGTIKLLIYYTSRLHSGVPSRFSGSGSGTDYSLTISNLEQEDIATYFCQQGSTLPRTFGGGT
endpointValue: 88.2%

binder: 02B04-02A08 (antibody, V domains shown) VH: EVKLEESGPGLVAPSQSLSITCTVSGFSLTGYGVNWVRQPPGKGLEWLGMIWGDGSTDYNSALKSRLNISKDNSKSQVFLKMDSLQTDDTARYYCARGGYDYDVPFFDYWGQGTTLTVSS VL: DIVMTQTTSSLSASLGDRVTISCRASQDISNYLNWYQQKPDGTVKLLIYYTSRLHSGVPSRFSGSGSGTDYSLTISNLEQEDIATYFCQQGNMFPYTLGGGT
endpointValue: 82.2%

binder: 20D11-02E10 (antibody, IgG1, V domains shown) VH: EVQLEESGPGLVAPSQSLSITCTVSGFSLTGYGVNWVRQPPGKGLEWLGMIWGDGSTDYNSALKSRLSISKDNSKSQVFLKMNSLQTDDTARYYCARDGYYYGTTWYFDVWGAGTTVTVSS VL: DIVITQTPLSLPVSLGDQASISCRSSQSIVHINRHTYLGWYLQKPGQSLKLLIYGVSNRFSGVPDRFSGSGSGTDFTLKISRVEAEDMGVYYCFQGTHVPFTFGSGT
endpointValue: 78.1%

binder: 30E01-02A11 (antibody, IgG1, V domains shown) VH: QVKLEESGPGLVAPSQSLSITCTVSGFSLTGYGVNWVRQPPGKGLEWLGMIWGDGSTDYNSALKSRLSISKDNSKSQVFLKMNSLQTDDTARYYCARDGYYYGTTWYFDVWGAGTTVTVSS VL: DIVLTQTTSSLSASLGDRVTISCRASQDISNYLNWYQQKPDGTIKLLIYYTSRLHSGVPSRFSGSGSGTDYSLTISNLEQEDIATYFCQQGSTLPRTFGGGT
endpointValue: 72.4%

binder: 01B12-02B08 (antibody, IgG1, V domains shown) VH: EVKLQESGPGLVAPSQSLSITCTVSGFSLTGYGVNWVRQPPGKGLEWLGMIWGDGSTDYNSALKSRLSISKDNSKSQVFLKMNSLQTDDTARYYCARDGYYYGTTWYFDVWGAGTTVTVSS VL: DIVMTQSTSSLSASLGDRVTISCRASQDISNYLNWYQQKPDGTIKLLIYYTSRLHSGVPSRFSGSGSGTDYSLTISNLEQEDIATYFCQQGSTLPRTFGGGT
endpointValue: 87.1%
